System: c-Abl (mouse);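 note: 11-residue human phosphosite peptides and single-mutation variants displayed on the E. coli surface, counted by deep sequencing, each peptide's frequency after selection divided by its frequency in the unselected input library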;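 note: frequency after pTyr selection over input frequency; kinase dosed for 20-30% of maximal phosphorylation in three min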
protocolDetails: phosphorylation enrichment, bacterial display (enrichment ratio); higher = better substrate or ligand; peptides without Tyr show the background
measurementKind: phosphorylation enrichment

- LWQTIYNLEAE [TNNT2_Y251_S249T]: 1.21
- SVVVPYKPPEV [TP53_Y220_E221K]: 0.584
- FGIAQYCCRMG [LRRK2_Y2023_YF]: 1.34
- FPKVRYHWLVL [APTX_Y214_A212V_YF]: 0.978
- EEALFYLTRVE [SET_Y119_H118Y_YF]: 1.03
- ELTSVYDSRAR [SENP1_Y349]: 0.557
- FSGDCYRIQGR [DDR2_Y741_Y740C_YF]: 0.636
